Source of measurements: ChEMBL document CHEMBL1201862

assay: cytotoxicity toward NIH3T3 fibroblasts, dose response, counter-screen, cell-based, ATP luminescence, mouse fibroblasts (AID 2010); assay type: functional;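 note: cells exposed to compound for about 90 hours before reading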
Calls of active or inactive are those of the source. Cut-off read from the data, not from the text of the source: actives have a measured EC50 and inactives only a lower limit.
reported endpoint: EC50

compound_structure_string=O=C(Nc1nnc(C2CC2)o1)c1ccc(S(=O)(=O)N2CCCc3ccccc32)cc1 reported_endpoint=EC50 meas_value="5.11 µM (active)"
compound_structure_string=O=C(c1ccco1)N1CCN(C(=O)c2cc(-c3ccncc3)nc3ccc(Br)cc23)CC1 reported_endpoint=EC50 meas_value="> 60 µM (not active)"
compound_structure_string=C[n+]1c2n(c3ccccc31)N=C(c1cc(C(C)(C)C)c(O)c(C(C)(C)C)c1)CS2 reported_endpoint=EC50 meas_value="> 60 µM (not active)"
compound_structure_string=COc1ccccc1/C=C/C(=O)NCC(=O)N/N=C/c1ccccc1[N+](=O)[O-] reported_endpoint=EC50 meas_value="> 60 µM (not active)"
compound_structure_string=O=[N+]([O-])c1ccc(S(=O)(=O)N2CCN(c3ccc(N4CCOCC4)nn3)CC2)cc1 reported_endpoint=EC50 meas_value="> 60 µM (not active)"
compound_structure_string=Cc1cccc(NC(=S)/N=C(\N)Nc2nc(C)c3ccc(C)cc3n2)c1 reported_endpoint=EC50 meas_value="> 60 µM (not active)"
compound_structure_string=COc1cc(/C=N/N=C(N)N)ccc1OCc1ccc(Cl)cc1 reported_endpoint=EC50 meas_value="> 30 µM (not active)"
